system: human recombinant aromatase (Homo sapiens, UniProt P11511)
Sequence (P11511 whole entry): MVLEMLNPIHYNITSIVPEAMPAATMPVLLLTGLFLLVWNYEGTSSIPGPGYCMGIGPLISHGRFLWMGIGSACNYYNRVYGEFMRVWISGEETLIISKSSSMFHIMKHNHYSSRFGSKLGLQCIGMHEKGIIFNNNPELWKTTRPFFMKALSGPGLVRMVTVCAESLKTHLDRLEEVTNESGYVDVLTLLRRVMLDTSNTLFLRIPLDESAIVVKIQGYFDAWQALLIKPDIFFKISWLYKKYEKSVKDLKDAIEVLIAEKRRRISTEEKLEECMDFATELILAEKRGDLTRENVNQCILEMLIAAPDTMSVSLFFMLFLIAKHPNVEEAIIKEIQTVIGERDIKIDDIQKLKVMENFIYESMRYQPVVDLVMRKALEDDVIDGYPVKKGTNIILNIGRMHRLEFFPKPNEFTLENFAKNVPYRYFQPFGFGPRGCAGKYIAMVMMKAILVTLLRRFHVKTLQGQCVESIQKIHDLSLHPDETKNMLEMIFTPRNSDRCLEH
assay: Inhibitory assay against human recombinant aromatase (Human CYP19 + P450 Reductase SUPERSOMES, dibenzylfluorescein)
assay context: three determinations
# strict inequality: IC50 < 30 µM yields true (1), everything else yields false (0)

compound	label
CC(C)[C@@H](C)/C=C/[C@@H](C)[C@H]1CC[C@H]2C3=CC=C4C[C@@H](O)CC[C@]4(C)[C@H]3CC[C@]12C [Compound 4, (22E)-ergosta-5,7,22-trien-3β-ol]	true (1)
CC(C)[C@@H](C)/C=C/[C@@H](C)[C@H]1CC=C2C3=C(CC[C@@]21C)[C@@]1(C)CC[C@H](O)C[C@@]12O[C@H]2[C@@H]3O [Compound 1]	true (1)
CC(C)[C@@H](C)/C=C/[C@@H](C)[C@H]1CC[C@H]2c3ccc4c(c3CC[C@]12C)CC[C@H](O)C4 [Compound 5]	false (0)
CC(C)[C@@H](C)/C=C/[C@@H](C)[C@H]1CC[C@@H]2[C@]1(C)CC[C@H]1[C@]23C=C[C@]2(C[C@@H](O)CC[C@]12C)OO3 [Compound 9, ergosterol peroxide]	false (0)
CC(C)[C@@H](C)/C=C/[C@@H](C)[C@H]1CC[C@H]2C3=CC(=O)[C@@]4(O)C[C@@H](O)CC[C@]4(C)[C@H]3CC[C@]12C [Compound 8]	false (0)
CC(C)[C@@H](C)/C=C/[C@@H](C)[C@H]1CC[C@H]2C3=CCC4C[C@@H](O)CC[C@]4(C)[C@H]3CC[C@]12C (stereo partly drawn) [Compound 3, (22E)-Ergosta-7,22-dien-3β-ol]	false (0)
CC(C)[C@@H](C)/C=C/[C@@H](C)[C@H]1CC[C@@H]2[C@]1(C)CC=C1[C@]23C=C[C@]2(C[C@@H](O)CC[C@]12C)OO3 [Compound 10, 9,11-dehydroergosterol peroxide]	false (0)
CO[C@@H]1C=C2[C@@H]3CC[C@H]([C@H](C)/C=C/[C@H](C)C(C)C)[C@@]3(C)CC[C@@H]2[C@@]2(C)CC[C@H](O)C[C@]12O [Compound 6]	true (1)
CC(C)[C@@H](C)/C=C/[C@@H](C)[C@H]1CC[C@H]2C3=CC(=O)[C@@]4(O)C[C@@H](O)CC[C@]4(C)[C@@]3(O)CC[C@]12C [Compound 7]	false (0)

The measurements presented in this section are drawn from paper PMC5713445.
